assay-remarks: A CellTox Green Cytotoxicity Assay to monitor cytotoxicity in HEK293 cells - 8 hour (AID 1224884); also: nearly all actives have a fitted effect of over 35% in size
test-conditions: CellTox Green fluorescence; series mostly up to 76.8 µM
Results filed as inconclusive are left out. Calls of active or inactive are those of the source. Calls follow the shape of the dose curve; as a rule, active = well fitted activation curve with a large enough effect in the repeat runs; inconclusive = weak or mixed curves; inactive = flat fitted curve, though single readings scatter.
readout-kind: outcome

CCCCCCCC/C=C\CCCCCCCC(=O)OC(CO)CO; inactive
CC1CC(O)CC(C)(C)C1 (stereo unspecified); inactive
O=C(O)c1cccnc1C(=O)O; inactive
CC(COc1ccc(C(C)(C)C)cc1)OS(=O)OCCCl (stereo unspecified); inactive
CC(C)CCCCCOC(=O)CCCCC(=O)OCCCCCC(C)C; inactive
CC(C)(O)c1ccccc1CC[C@@H](SCC1(CC(=O)O)CC1)c1cccc(/C=C/c2ccc3ccc(Cl)cc3n2)c1; inactive
CCCCCCCCSCCO; inactive
CCOc1cc(N)c(Cl)cc1C(=O)NCC1CN(Cc2ccc(F)cc2)CCO1 (stereo unspecified); inactive

INPUT: Given "CCNC(=O)N1CCN(CCCC(c2ccc(F)cc2)c2ccc(F)cc2)CC1" , state its recorded outcome.
OUTPUT: inactive

INPUT: Record request: outcome value, item "C[C@]12CCC(=O)C=C1C=C[C@@H]1[C@@H]2CC[C@@]2(C)[C@H]1CC[C@@]21CCC(=O)O1"
OUTPUT: inactive

INPUT: Consider the compound shown here: "CC(=O)Oc1ccc2c(c1)CC[C@@H]1[C@@H]2CC[C@]2(C)[C@@H](O)CC[C@@H]12" What is its recorded outcome?
OUTPUT: inactive

---

assay-remarks: Human pregnane X receptor (PXR) small molecule agonists, qHTS cell viability counter screen (AID 1346977); also: nearly all actives have a fitted effect of over 50% in size
test-conditions: PXR-Luc HepG2 viability, CellTiter-Fluor, 24 h; series mostly up to 92.4 µM
Results filed as inconclusive are left out. Activity calls are given as the source filed them. The call rests on the fitted dose curve; in most records, active means well fitted cell-killing curve with a large enough effect in the repeat runs; inconclusive means weak or mixed curves, or effect the other way; inactive means flat fitted curve, though single readings scatter.
Would you mind answering with one of these outcomes? True for active, False for inactive

INPUT: Hi team, can someone confirm the assay call for "Cc1cc(O)c2c(O)c3c(O)cccc3cc2c1" ?
OUTPUT: False

INPUT: Look up the recorded call for "CCCCCCCCCCCC[N+](C)(C)CCCS(=O)(=O)[O-]" in this test.
OUTPUT: False

INPUT: Hi, sorry to bother you, what did the test record for "CCOC(=O)OCC" ?
OUTPUT: False

INPUT: What call does the record list for "CCCc1c(OCCCOc2ccc(OCC(=O)O)cc2)ccc(C(C)=O)c1O" ?
OUTPUT: False

INPUT: What classification did "OCCSc1ccccc1" end up with in this test?
OUTPUT: False

INPUT: Please indicate how the test categorized "CCCCOC(=O)CCS" .
OUTPUT: False

INPUT: Record request — test call for "O=S(=O)(c1ccccc1)c1ccc(Cl)cc1"
OUTPUT: False

INPUT: What classification did "O=C(CCCCCCC(=O)Nc1ccccc1)NO" end up with in this test?
OUTPUT: True

INPUT: Per the records of this test, what outcome belongs to "CCCOCCOCCO" ?
OUTPUT: False

INPUT: Per the records of this test, what outcome belongs to "CCCCC(=O)O[C@]1(C(=O)CO)CC[C@H]2[C@@H]3CCC4=CC(=O)CC[C@]4(C)[C@H]3[C@@H](O)C[C@@]21C" ?
OUTPUT: False

INPUT: Please indicate how the test categorized "O=Cc1c(Cl)cccc1Cl" .
OUTPUT: False

INPUT: I'd appreciate the recorded outcome for "CN1CCCN=C1/C=C/c1cccs1" from this test.
OUTPUT: False

INPUT: Please indicate how the test categorized "COc1ccc([C@@H]2Sc3ccccc3NC(=O)[C@@H]2O)cc1" .
OUTPUT: False

INPUT: Would you mind telling me which call this test gave "Nc1c(I)cc(I)c(C(=O)N(CCC(=O)O)c2ccccc2)c1I" ?
OUTPUT: False

INPUT: So what was the verdict on "CO[C@H]1C=CO[C@@]2(C)Oc3c(C)c(O)c4c(O)c(c5c(c4c3C2=O)=NC2(CCN(CC(C)C)CC2)N=5)NC(=O)/C(C)=C\C=C/[C@H](C)[C@H](O)[C@@H](C)[C@@H](O)[C@@H](C)[C@H](OC(C)=O)[C@@H]1C" in this test?
OUTPUT: True

INPUT: Can you look up the reported call for "CC1(C)O[C@@H]2C[C@H]3[C@@H]4CCC5=CC(=O)C=C[C@]5(C)[C@H]4[C@@H](O)C[C@]3(C)[C@]2(C(=O)CO)O1" for me?
OUTPUT: False

INPUT: Assay result, entry CCCCC(CC)COC(=O)COc1ccc(Cl)cc1C (stereo not drawn) — outcome?
OUTPUT: False

INPUT: Answer briefly: the call reported for "CC(C)CCCCCCOC(=O)CCCCC(=O)OCCCCCCC(C)C" in this assay.
OUTPUT: False

INPUT: Hello, I am checking results. What call was entered for "CCOC(=O)c1ccccc1C" ?
OUTPUT: False

INPUT: I'd appreciate the recorded outcome for "C[C@]12CCC(=O)C=C1C=C[C@@H]1[C@@H]2CC[C@@]2(C)[C@H]1CC[C@@]21CCC(=O)O1" from this test.
OUTPUT: False

INPUT: // return assay outcome for "O=C(CS)OCCOC(=O)CS"
OUTPUT: False

INPUT: # fetch the recorded call for CO/N=C1\CN(c2nc3c(cc2F)c(=O)c(C(=O)O)cn3C2CC2)CC1CN (stereo not drawn) here
OUTPUT: False

INPUT: Please indicate how the test categorized "C=CCNc1nc(NCC=C)nc(N2CCN(C(c3ccc(F)cc3)c3ccc(F)cc3)CC2)n1" .
OUTPUT: False

Values were extracted from PubChem BioAssay (Tox21).
